Listing of entries alongside the reported IC50.
- Tested on: Human immunodeficiency virus 1
- test.name: Antiviral activity against HIV1 CAP.2.00.G3 infected in human TZM-b1 cells assessed as inhibition of viral infection after 2 days postinfection by luciferase reporter gene assay
- Type: functional, organism-based
- study.conditions: Human immunodeficiency virus 1, CAP.2.00.G3, TZM-b1, 48 h
// return the numeric value with its unit appended

C=C(C)[C@@H]1CC[C@]2(C(=O)NCCCCCCCNC(C)=O)CC[C@]3(C)[C@H](CC[C@@H]4[C@@]5(C)CC[C@H](O)C(C)(C)[C@@H]5CC[C@]43C)[C@@H]12    140 nM

Please find the next molecule below.
Item C=C(C)[C@@H]1CC[C@]2(C(=O)NCCCCCCCC(=O)N[C@@H](CC(C)C)[C@H](O)CC(=O)O)CC[C@]3(C)[C@H](CC[C@@H]4[C@@]5(C)CC[C@H](O)C(C)(C)[C@@H]5CC[C@]43C)[C@@H]12 ; assay system Human immunodeficiency virus 1; IC50 reported as 80 nM

---

Listing of entries alongside the reported IC50.
- Tested on: Human immunodeficiency virus 1
- test.name: Antiviral activity against HIV1 RHPA4259.7 infected in human TZM-b1 cells assessed as inhibition of viral infection after 2 days postinfection by luciferase reporter gene assay
- Assay type: functional, organism-based
- study.conditions: Human immunodeficiency virus 1, RHPA4259.7, TZM-b1, 48 h
Numeric only. Scale: nM

C=C(C)[C@@H]1CC[C@]2(C(=O)NCCCCCCCNC(C)=O)CC[C@]3(C)[C@H](CC[C@@H]4[C@@]5(C)CC[C@H](O)C(C)(C)[C@@H]5CC[C@]43C)[C@@H]12    640

Please find the next molecule below.
Record C=C(C)[C@@H]1CC[C@]2(C(=O)NCCCCCCCC(=O)N[C@@H](CC(C)C)[C@H](O)CC(=O)O)CC[C@]3(C)[C@H](CC[C@@H]4[C@@]5(C)CC[C@H](O)C(C)(C)[C@@H]5CC[C@]43C)[C@@H]12 . Reported IC50: 820

---

- Tested on: Human immunodeficiency virus 1
- test.name: Antiviral activity against HIV1 SS1196.1 infected in human TZM-b1 cells assessed as inhibition of viral infection after 2 days postinfection by luciferase reporter gene assay
- Type: functional, organism-based
- study.conditions: Human immunodeficiency virus 1, SS1196.1, TZM-b1, 48 h
observable: IC50 (nM)
Numeric only. Scale: nM

C=C(C)[C@@H]1CC[C@]2(C(=O)NCCCCCCCC(=O)N[C@@H](CC(C)C)[C@H](O)CC(=O)O)CC[C@]3(C)[C@H](CC[C@@H]4[C@@]5(C)CC[C@H](O)C(C)(C)[C@@H]5CC[C@]43C)[C@@H]12    210

Please find the next compound below.
Record C=C(C)[C@@H]1CC[C@]2(C(=O)NCCCCCCCNC(C)=O)CC[C@]3(C)[C@H](CC[C@@H]4[C@@]5(C)CC[C@H](O)C(C)(C)[C@@H]5CC[C@]43C)[C@@H]12 . Reported IC50: 220

---

Listing of entries alongside the reported IC50.
- Test system: Human immunodeficiency virus 1
- test.name: Antiviral activity against HIV1 5768.4 infected in human TZM-b1 cells assessed as inhibition of viral infection after 2 days postinfection by luciferase reporter gene assay
- Assay type: functional, organism-based
- study.conditions: Human immunodeficiency virus 1, 5768.4, TZM-b1, 48 h
Numeric only. Scale: nM

Record C=C(C)[C@@H]1CC[C@]2(C(=O)NCCCCCCCNC(C)=O)CC[C@]3(C)[C@H](CC[C@@H]4[C@@]5(C)CC[C@H](O)C(C)(C)[C@@H]5CC[C@]43C)[C@@H]12 . Reported IC50: 450

Record C=C(C)[C@@H]1CC[C@]2(C(=O)NCCCCCCCC(=O)N[C@@H](CC(C)C)[C@H](O)CC(=O)O)CC[C@]3(C)[C@H](CC[C@@H]4[C@@]5(C)CC[C@H](O)C(C)(C)[C@@H]5CC[C@]43C)[C@@H]12 . Reported IC50: 670
